Ref: ChEMBL document CHEMBL4393738

Measurement description: Selectivity index, ratio of IC50 for mouse J774.A1 cells to MIC for Mycobacterium tuberculosis INH R1 ATCC 35822
Type: toxicity
Test context: read-out: Selectivity Index
Catalogue of compounds with associated selectivity ratio
Readout type: selectivity ratio

- CC1(C)OC2=C(C(=O)/C(=N\NC(=O)c3ccncc3)c3ccccc32)C1Nc1ccccc1 (stereo unspecified): 0.7
- CC1(C)OC2=C(CC1I)C(=O)C(=O)c1ccccc12 (stereo unspecified): 1
- CC1(C)CC2=C(O1)C(=O)c1ccccc1C2=O: 0.7
- CC1(C)OC2=C(C(=O)C(=O)c3ccccc32)[C@H](n2cc(-c3ccccc3)nn2)[C@H]1Br (racemic): 0.2
- O=C1C(=O)c2ccccc2C2=C1CC(Cn1cc(-c3ccccc3)nn1)O2 (stereo unspecified): 0.1
- CC1(C)OC2=C(CC1I)C(=O)/C(=N\NC(=O)c1ccncc1)c1ccccc12 (stereo unspecified): 0.3
- CC1(C)OC2=C(C(=O)C(=O)c3ccccc32)C1n1cc(-c2ccccc2)nn1 (stereo unspecified): 0.1
- CC1(C)OC2=C(C(=O)/C(=N\NC(=O)c3ccncc3)c3ccccc32)C1n1cc(-c2ccccc2)nn1 (stereo unspecified): 8.1
- CC1(C)CC2=C(O1)/C(=N\NC(=O)c1ccncc1)c1ccccc1C2=O: 0.2
- O=C1C2=C(OC(Cn3cc(-c4ccccc4)nn3)C2)c2ccccc2/C1=N/NC(=O)c1ccncc1 (stereo unspecified): 0.4
- CC1(C)CC2=C(O1)c1ccccc1C(=O)C2=O [NOR-BETA-LAPACHONE]: 0.3
- CC1(C)OC2=C(CC1Br)C(=O)C(=O)c1ccccc12 (stereo unspecified): 0.3
- CC1(C)OC2=C(C(=O)C(=O)c3ccccc32)C1Nc1ccccc1 (stereo unspecified): 0.6
- CC1(C)OC2=C(C(=O)/C(=N\NC(=O)c3ccncc3)c3ccccc32)[C@H](n2cc(-c3ccccc3)nn2)[C@H]1Br: 0.9
- CC1(C)OC2=C(C(=O)C(=O)c3ccccc32)C1O (stereo unspecified): 0.1

###

Measurement description: Selectivity index, ratio of IC50 for mouse J774.A1 cells to MIC for Mycobacterium tuberculosis INH R2
Format: toxicity
Test context: read-out: Selectivity Index
Readout type: selectivity ratio

• CC1(C)OC2=C(C(=O)C(=O)c3ccccc32)C1Nc1ccccc1 (stereo unspecified) = 0.3
• CC1(C)OC2=C(CC1I)C(=O)/C(=N\NC(=O)c1ccncc1)c1ccccc12 (stereo unspecified) = 0.3
• O=C1C2=C(OC(Cn3cc(-c4ccccc4)nn3)C2)c2ccccc2/C1=N/NC(=O)c1ccncc1 (stereo unspecified) = 0.4
• CC1(C)OC2=C(CC1Br)C(=O)C(=O)c1ccccc12 (stereo unspecified) = 0.6
• CC1(C)OC2=C(C(=O)/C(=N\NC(=O)c3ccncc3)c3ccccc32)C1Nc1ccccc1 (stereo unspecified) = 3

###

Measurement description: Selectivity index, ratio of IC50 for mouse J774.A1 cells to MIC for Mycobacterium tuberculosis INH R2
Format: toxicity
Test context: read-out: Selectivity Index
Readout type: selectivity ratio

- CC1(C)OC2=C(CC1Br)C(=O)/C(=N\NC(=O)c1ccncc1)c1ccccc12 (stereo not drawn): > 16
- CC1(C)CCC2=C(O1)c1ccccc1/C(=N/NC(=O)c1ccncc1)C2=O: > 32
- CC1(C)CC2=C(O1)c1ccccc1/C(=N/NC(=O)c1ccncc1)C2=O: > 32

###

Measurement description: Selectivity index, ratio of IC50 for mouse J774.A1 cells to MIC for Mycobacterium tuberculosis H37Rv
Format: toxicity
Test context: read-out: Selectivity Index
Readout type: selectivity ratio

* CC1(C)CC2=C(O1)/C(=N\NC(=O)c1ccncc1)c1ccccc1C2=O | 0.7
* CC1(C)OC2=C(CC1I)C(=O)/C(=N\NC(=O)c1ccncc1)c1ccccc12 (centres undefined) | 0.3
* CC1(C)OC2=C(C(=O)C(=O)c3ccccc32)C1Nc1ccccc1 (centres undefined) | 0.6
* CC1(C)OC2=C(CC1Br)C(=O)C(=O)c1ccccc12 (centres undefined) | 0.3
* CC1(C)OC2=C(C(=O)C(=O)c3ccccc32)C1O (centres undefined) | 0.3
* CC1(C)OC2=C(C(=O)C(=O)c3ccccc32)[C@H](n2cc(-c3ccccc3)nn2)[C@H]1Br (racemic) | 0.9
* CC1(C)OC2=C(C(=O)/C(=N\NC(=O)c3ccncc3)c3ccccc32)C1n1cc(-c2ccccc2)nn1 (centres undefined) | 8.1
* CC1(C)OC2=C(C(=O)/C(=N\NC(=O)c3ccncc3)c3ccccc32)C1Nc1ccccc1 (centres undefined) | 3

###

Measurement description: Selectivity index, ratio of IC50 for mouse J774.A1 cells to MIC for Mycobacterium tuberculosis INH R1 ATCC 35822
Assay type: toxicity
Test context: read-out: Selectivity Index
Readout type: selectivity ratio

* CC1(C)OC2=C(CC1Br)C(=O)/C(=N\NC(=O)c1ccncc1)c1ccccc12 (stereo unspecified) | > 16
* CC1(C)CCC2=C(O1)c1ccccc1/C(=N/NC(=O)c1ccncc1)C2=O | > 4
* CC1(C)OC2=C(C(=O)/C(=N\NC(=O)c3ccncc3)c3ccccc32)C1O (stereo unspecified) | > 1
* CC1(C)CC2=C(O1)c1ccccc1/C(=N/NC(=O)c1ccncc1)C2=O | > 4
* CC1(C)CCC2=C(O1)c1ccccc1C(=O)C2=O | > 64
* CC1CC2=C(O1)c1ccccc1/C(=N/NC(=O)c1ccncc1)C2=O (stereo unspecified) | > 16

###

Measurement description: Selectivity index, ratio of IC50 for mouse J774.A1 cells to MIC for Mycobacterium tuberculosis H37Rv
Format: toxicity
Test context: read-out: Selectivity Index
// values below are reported selectivity ratio
Readout type: selectivity ratio

- CC1CC2=C(O1)c1ccccc1/C(=N/NC(=O)c1ccncc1)C2=O (stereo unspecified): > 16
- CC1(C)OC2=C(C(=O)/C(=N\NC(=O)c3ccncc3)c3ccccc32)C1O (stereo unspecified): > 32
- CC1(C)CC2=C(O1)c1ccccc1/C(=N/NC(=O)c1ccncc1)C2=O: > 250
- CC1(C)CCC2=C(O1)c1ccccc1C(=O)C2=O [LAPACHONE]: > 32
- CC1(C)CCC2=C(O1)c1ccccc1/C(=N/NC(=O)c1ccncc1)C2=O: > 250
- CC1(C)OC2=C(CC1Br)C(=O)/C(=N\NC(=O)c1ccncc1)c1ccccc12 (stereo unspecified): > 16
